Biological target: cIAP2-BIR3 (Homo sapiens (Human))
Sequence (Q13489 238-349): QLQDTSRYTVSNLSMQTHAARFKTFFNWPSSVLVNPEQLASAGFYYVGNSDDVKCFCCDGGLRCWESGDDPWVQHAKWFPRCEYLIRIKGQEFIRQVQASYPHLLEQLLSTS
Assay: BIR binding assay (FRET competition), cIAP2 BIR3
Conditions: fold separation (FS) for cIAP2
Property label: cIAP2 BIR3 vs BIR2 separation window

C[C@@H]1CN(CC(=O)N2CC(C)(C)c3[nH]c(=O)c(Cc4ccc(F)cc4)cc32)[C@@H](CN2CCO[C@H](C(=O)N3CCN(C(=O)[C@@H]4CN(C[C@H]5CN[C@H](C)CN5CC(=O)N5CC(C)(C)c6[nH]c(=O)c(Cc7ccc(F)cc7)cc65)CCO4)CC3)C2)CN1 [Example 118] ... +++ (10,000>FS>1,000)
C[C@@H]1CN(CC(=O)N2CC(C)(C)c3[nH]c(=O)c(Cc4ccc(F)cc4)cc32)[C@@H](CN2CCC(CN(C)C(=O)c3cccc(C(=O)N(C)CC4CCN(C[C@H]5CN[C@H](C)CN5CC(=O)N5CC(C)(C)c6[nH]c(=O)c(Cc7ccc(F)cc7)cc65)CC4)c3)CC2)CN1 [Example 95] ... +++ (10,000>FS>1,000)

----------
IC50 values for the compounds below.
Target: cIAP2-BIR2 (Homo sapiens (Human))
Sequence (Q13489 158-242): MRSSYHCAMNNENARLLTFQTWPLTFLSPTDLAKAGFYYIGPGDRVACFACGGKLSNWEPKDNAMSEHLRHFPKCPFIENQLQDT
Test: BIR binding assay (FRET competition), cIAP2 BIR2

C[C@@H]1CN(CC(=O)N2CC(C)(C)c3[nH]c(=O)c(Cc4ccc(F)cc4)cc32)[C@@H](CN2CCO[C@H](COc3ccc(OC[C@@H]4CN(C[C@H]5CN[C@H](C)CN5CC(=O)N5CC(C)(C)c6[nH]c(=O)c(Cc7ccc(F)cc7)cc65)CCO4)cc3)C2)CN1 [Example 70] ... 1 to 3.16 µM
C[C@@H]1CN(CC(=O)N2CC(C)(C)c3[nH]c(=O)c(Cc4ccc(F)cc4)cc32)[C@@H](CN2CCO[C@H](C(=O)NCC3CCN(C(=O)[C@@H]4CN(C[C@H]5CN[C@H](C)CN5CC(=O)N5CC(C)(C)c6[nH]c(=O)c(Cc7ccc(F)cc7)cc65)CCO4)CC3)C2)CN1 [Compound 133] ... 3.16 to 10 µM

Task: I'm curious: which IC50 was measured for C[C@@H]1CN(CC(=O)N2CC(C)(C)c3ncc(Cc4cccnc4)cc32)[C@@H](CN2CCO[C@H](COc3cccc(OC[C@@H]4CN(C[C@H]5CN[C@H](C)CN5CC(=O)N5CC(C)(C)c6ncc(Cc7cccnc7)cc65)CCO4)c3)C2)CN1 [Compound 146] tested on cIAP2-BIR2 (Homo sapiens (Human))?
Output: 10 to 51.3 µM

Task: I'm curious: which IC50 was measured for C[C@@H]1CN(CC(=O)N2CC(C)(C)c3[nH]c(=O)c(Cc4ccc(F)cc4)cc32)[C@@H](CN2CCN(C(=O)c3cccnc3-c3ncccc3C(=O)N3CCN(C[C@H]4CN[C@H](C)CN4CC(=O)N4CC(C)(C)c5[nH]c(=O)c(Cc6ccc(F)cc6)cc54)[C@H](C)C3)C[C@H]2C)CN1 [Example 17] tested on cIAP2-BIR2 (Homo sapiens (Human))?
Output: 0.0224 to 1 µM

----------
Test system: Jurkat HIV-luciferase clones
Experiment: Jurkat latency reversal assay
Type: cell-based
Conditions: Homo sapiens, 48 h; Jurkat latency reversal assay potency; read-out: Jurkat pEC50 (converted)
EC50 values for the molecules below.

C[C@@H]1CN(CC(=O)N2CC(C)(C)c3[nH]c(=O)c(Cc4ccc(F)cc4)cc32)[C@@H](CN2CCN(S(=O)(=O)c3ccc(Oc4ccc(S(=O)(=O)N5CCN(C[C@H]6CN[C@H](C)CN6CC(=O)N6CC(C)(C)c7[nH]c(=O)c(Cc8ccc(F)cc8)cc76)[C@H](C)C5)cc4)cc3)C[C@H]2C)CN1 ... 316 to 3310 nM

Task: Which EC50 value belongs to C[C@@H]1CN(CC(=O)N2CC(C)(C)c3[nH]c(=O)c(Cc4ccc(F)cc4)cc32)[C@@H](CN2CCN(C(=O)c3ccc(C(=O)N4CCN(C[C@H]5CN[C@H](C)CN5CC(=O)N5CC(C)(C)c6[nH]c(=O)c(Cc7ccc(F)cc7)cc65)[C@H](C)C4)cc3)C[C@H]2C)CN1 ?
Output: 63.1 to 316 nM

Task: Which EC50 value belongs to C[C@@H]1CN(CC(=O)N2CC(C)(C)c3[nH]c(=O)c(Cc4ccc(F)cc4)cc32)[C@@H](CN2CCO[C@H](C(=O)NCCCNC(=O)[C@@H]3CN(C[C@H]4CN[C@H](C)CN4CC(=O)N4CC(C)(C)c5[nH]c(=O)c(Cc6ccc(F)cc6)cc54)CCO3)C2)CN1 ?
Output: 63.1 to 316 nM

Task: Which EC50 value belongs to C[C@@H]1CN(CC(=O)N2CC(C)(C)c3[nH]c(=O)c(Cc4ccc(F)cc4)cc32)[C@@H](CN2CCO[C@H](C(=O)N3CCN(C(=O)[C@@H]4CN(C[C@H]5CN[C@H](C)CN5CC(=O)N5CC(C)(C)c6[nH]c(=O)c(Cc7ccc(F)cc7)cc65)CCO4)CC3)C2)CN1 ?
Output: 12.6 to 63.1 nM

Task: Which EC50 value belongs to C[C@@H]1CN(CC(=O)N2CC(C)(C)c3[nH]c(=O)c(Cc4ccc(F)cc4)cc32)[C@@H](CN2CCC(CNC(=O)c3ccc(C(=O)NCC4CCN(C[C@H]5CN[C@H](C)CN5CC(=O)N5CC(C)(C)c6[nH]c(=O)c(Cc7ccc(F)cc7)cc65)CC4)cc3)CC2)CN1 ?
Output: 63.1 to 316 nM

Task: Which EC50 value belongs to C[C@@H]1CN(CC(=O)N2CC(C)(C)c3[nH]c(=O)c(Cc4ccc(F)cc4)cc32)[C@@H](CN2CCO[C@H](C(=O)N[C@H]3CC[C@H](NC(=O)[C@@H]4CN(C[C@H]5CN[C@H](C)CN5CC(=O)N5CC(C)(C)c6[nH]c(=O)c(Cc7ccc(F)cc7)cc65)CCO4)CC3)C2)CN1 ?
Output: 12.6 to 63.1 nM

Task: Which EC50 value belongs to C[C@@H]1CN(CC(=O)N2CC(C)(C)c3[nH]c(=O)c(Cc4c(F)c(F)c(F)c(F)c4F)cc32)[C@@H](CN2CCO[C@H](C(=O)NCc3ccc(CNC(=O)[C@@H]4CN(C[C@H]5CN[C@H](C)CN5CC(=O)N5CC(C)(C)c6[nH]c(=O)c(Cc7c(F)c(F)c(F)c(F)c7F)cc65)CCO4)cc3)C2)CN1 ?
Output: 0.49 to 12.6 nM

Task: Which EC50 value belongs to C[C@@H]1CN(CC(=O)N2CC(C)(C)c3[nH]c(=O)c(Oc4ccc(Cl)cc4)cc32)[C@@H](CN2CCO[C@H](C(=O)NCc3ccc(CNC(=O)[C@@H]4CN(C[C@H]5CN[C@H](C)CN5CC(=O)N5CC(C)(C)c6[nH]c(=O)c(Oc7ccc(Cl)cc7)cc65)CCO4)cc3)C2)CN1 ?
Output: 63.1 to 316 nM

Task: Which EC50 value belongs to C[C@@H]1CN(CC(=O)N2CC(C)(C)c3[nH]c(=O)c(Cc4ccc(F)cc4)cc32)[C@@H](CN2CCC[C@H](NC(=O)Cc3ccc(CC(=O)N[C@H]4CCCN(C[C@H]5CN[C@H](C)CN5CC(=O)N5CC(C)(C)c6[nH]c(=O)c(Cc7ccc(F)cc7)cc65)C4)cc3)C2)CN1 ?
Output: 316 to 3310 nM

Task: Which EC50 value belongs to C[C@@H]1CN(CC(=O)N2CC(C)(C)c3ncc(Cc4ccc(Cl)cc4)cc32)[C@@H](CN2CCO[C@H](COc3cccc(OC[C@@H]4CN(C[C@H]5CN[C@H](C)CN5CC(=O)N5CC(C)(C)c6ncc(Cc7ccc(Cl)cc7)cc65)CCO4)c3)C2)CN1 ?
Output: 12.6 to 63.1 nM

----------
IC50 values for the compounds below.
Target: XIAP-BIR3 (Homo sapiens (Human))
Sequence (P98170 241-356): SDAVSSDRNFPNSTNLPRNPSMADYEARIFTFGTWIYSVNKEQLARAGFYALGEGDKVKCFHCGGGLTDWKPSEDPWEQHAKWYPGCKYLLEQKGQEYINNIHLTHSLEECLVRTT
Test: BIR binding assay (FRET competition), XIAP BIR3

Examples from the recorded data:
C[C@@H]1CN(CC(=O)N2CC(C)(C)c3[nH]c(=O)c(Cc4ccc(F)cc4)cc32)[C@@H](CN2CCN(CCCCCCCCCCN3CCN(C[C@H]4CN[C@H](C)CN4CC(=O)N4CC(C)(C)c5[nH]c(=O)c(Cc6ccc(F)cc6)cc54)[C@H](C)C3)C[C@H]2C)CN1 [Example 25] ... 0.00794 to 0.0158 µM
C[C@@H]1CN(CC(=O)N2CC(C)(C)c3[nH]c(=O)c(Cc4ccc(C(F)F)cc4)cc32)[C@@H](CN2CCO[C@H](C(=O)NCc3ccc(CNC(=O)[C@@H]4CN(C[C@H]5CN[C@H](C)CN5CC(=O)N5CC(C)(C)c6[nH]c(=O)c(Cc7ccc(C(F)F)cc7)cc65)CCO4)cc3)C2)CN1 [Compound 166] ... 0.0158 to 0.0316 µM
C[C@@H]1CN(CC(=O)N2CC(C)(C)c3[nH]c(=O)c(Cc4ccc(F)cc4)cc32)[C@@H](CN2CCC(CN(C)C(=O)Cc3cccc(C(=O)N(C)CC4CCN(C[C@H]5CN[C@H](C)CN5CC(=O)N5CC(C)(C)c6[nH]c(=O)c(Cc7ccc(F)cc7)cc65)CC4)c3)CC2)CN1 [Example 98] ... 0.00794 to 0.0158 µM
C[C@@H]1CN(CC(=O)N2CC(C)(C)c3[nH]c(=O)c(Cc4ccc(F)cc4)cc32)[C@@H](CN2CCO[C@H](C(=O)NC3CCN(C(=O)[C@@H]4CN(C[C@H]5CN[C@H](C)CN5CC(=O)N5CC(C)(C)c6[nH]c(=O)c(Cc7ccc(F)cc7)cc65)CCO4)CC3)C2)CN1 [Example 129] ... 0.0158 to 0.0316 µM
C[C@@H]1CN(CC(=O)N2CC(C)(C)c3[nH]c(=O)c(Cc4ccc(F)cc4)cc32)[C@@H](CN2CCC(CCN(C)C(=O)c3ccc(C(=O)N(C)CCC4CCN(C[C@H]5CN[C@H](C)CN5CC(=O)N5CC(C)(C)c6[nH]c(=O)c(Cc7ccc(F)cc7)cc65)CC4)cc3)CC2)CN1 [Example 104] ... 0.00138 to 0.00794 µM

Task: Which IC50 value belongs to C[C@@H]1CN(CC(=O)N2CC(C)(C)c3[nH]c(=O)c(Cc4ccc(F)cc4)cc32)[C@@H](CN2CCO[C@H](C(=O)NCCCN(C)C(=O)[C@@H]3CN(C[C@H]4CN[C@H](C)CN4CC(=O)N4CC(C)(C)c5[nH]c(=O)c(Cc6ccc(F)cc6)cc54)CCO3)C2)CN1 [Compound 135] ?
Output: 0.0158 to 0.0316 µM

Task: Which IC50 value belongs to C[C@@H]1CN(CC(=O)N2CC(C)(C)c3[nH]c(=O)c(Cc4ccc(F)cc4)cc32)[C@@H](CN2CCC[C@H](NC(=O)Cc3cccc(CC(=O)N[C@H]4CCCN(C[C@H]5CN[C@H](C)CN5CC(=O)N5CC(C)(C)c6[nH]c(=O)c(Cc7ccc(F)cc7)cc65)C4)c3)C2)CN1 [Example 41] ?
Output: 0.0316 to 0.501 µM
